# target.entity: human PDE2A1 (Homo sapiens (Human), UniProt O00408)
# Sequence (O00408 other isoform, or with tags, fused parts or gaps): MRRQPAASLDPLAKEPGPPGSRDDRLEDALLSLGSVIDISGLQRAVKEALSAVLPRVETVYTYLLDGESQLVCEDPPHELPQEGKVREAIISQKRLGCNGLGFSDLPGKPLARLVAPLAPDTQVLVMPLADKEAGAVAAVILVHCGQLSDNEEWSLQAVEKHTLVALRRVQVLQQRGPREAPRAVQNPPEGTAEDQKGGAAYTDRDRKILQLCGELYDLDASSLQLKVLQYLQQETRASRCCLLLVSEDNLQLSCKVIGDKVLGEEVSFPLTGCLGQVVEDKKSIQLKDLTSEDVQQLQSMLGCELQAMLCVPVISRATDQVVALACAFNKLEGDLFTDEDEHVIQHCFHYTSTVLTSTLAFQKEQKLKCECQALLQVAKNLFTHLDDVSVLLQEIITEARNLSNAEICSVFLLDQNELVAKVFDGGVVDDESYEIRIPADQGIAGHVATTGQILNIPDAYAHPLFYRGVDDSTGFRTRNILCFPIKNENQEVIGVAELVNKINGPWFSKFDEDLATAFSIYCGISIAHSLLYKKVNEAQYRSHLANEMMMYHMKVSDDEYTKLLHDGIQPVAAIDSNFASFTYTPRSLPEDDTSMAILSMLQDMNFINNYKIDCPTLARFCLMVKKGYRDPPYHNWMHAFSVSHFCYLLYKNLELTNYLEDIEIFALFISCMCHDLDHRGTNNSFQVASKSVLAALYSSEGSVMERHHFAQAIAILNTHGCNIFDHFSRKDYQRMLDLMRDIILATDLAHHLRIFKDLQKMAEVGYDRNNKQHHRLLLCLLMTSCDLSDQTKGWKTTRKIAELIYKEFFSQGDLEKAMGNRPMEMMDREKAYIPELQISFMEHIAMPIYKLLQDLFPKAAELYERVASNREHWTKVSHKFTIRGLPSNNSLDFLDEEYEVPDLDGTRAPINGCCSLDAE
# protocol.text: IMAP FP PDE selectivity panel, human PDE2A1
# Type: biochemical
# condition.details: Human PDE2, Lab A; read-out: Human PDE2 Ki (nM) - Lab A
Note to self: use 1 only for Ki readings below 20 nM; a reading exactly at 20 nM still gets -1.

Consider the worked cases shown below.
{"columns": ["compound", "target.entity", "label"],
 "data": [
  ["COCc1nc(C(=O)N[C@@H](c2ccc(OC(F)(F)F)cc2)C2CC2)cc(=O)[nH]1", "human PDE2A1 (Homo sapiens (Human), UniProt O00408)", 1],
  ["Cc1nc(C(=O)NC(c2ccc(C(F)(F)F)cc2)c2nnn[nH]2)cc(=O)[nH]1 (centres unmarked)", "human PDE2A1 (Homo sapiens (Human), UniProt O00408)", -1],
  ["C[C@@H](NC(=O)c1cc(=O)[nH]c(Cc2cccnc2)n1)c1ccc(C(F)(F)F)cc1", "human PDE2A1 (Homo sapiens (Human), UniProt O00408)", -1],
  ["CC(NC(=O)c1cc(=O)[nH]c(-c2ncccn2)n1)c1ccc(Br)cc1 (centres unmarked)", "human PDE2A1 (Homo sapiens (Human), UniProt O00408)", -1],
  ["O=C(NC1(c2ccc(OC(F)(F)F)cc2)CCC1)c1cc(=O)[nH]c(C2CC2)n1", "human PDE2A1 (Homo sapiens (Human), UniProt O00408)", -1],
  ["O=C(N[C@@H](c1ccc(SC(F)(F)F)cc1)C1CC1)c1cc(=O)[nH]c(-c2ccccc2)n1", "human PDE2A1 (Homo sapiens (Human), UniProt O00408)", 1],
  ["Cc1nc(C(=O)N[C@H](C)c2ccc(C(F)(F)F)c(F)c2)cc(=O)[nH]1", "human PDE2A1 (Homo sapiens (Human), UniProt O00408)", -1],
  ["CSCc1nc(C(=O)N[C@H](C)c2ccc(C(F)(F)F)cc2)cc(=O)[nH]1", "human PDE2A1 (Homo sapiens (Human), UniProt O00408)", -1]
]}

Consider the record given below.
Q: Hello, is Ki of the following compound strictly smaller than 20 nM? Cc1nc(C(=O)NC2(c3ccc(C(F)(F)F)c(F)c3)CC2)cc(=O)[nH]1
Result: 1

* * *

# target.entity: human PDE2A1 (Homo sapiens (Human))
# protocol.text: IMAP FP PDE selectivity panel, human PDE2A1
# Format: biochemical
# condition.details: Human PDE2, Lab A; read-out: Human PDE2 Ki (nM) - Lab A
quantity.measured: log10(Ki) (log10 of the value in nM)
// stored as log10 of Ki expressed in nM

{"columns": ["compound", "log10(Ki)"],
 "data": [
  ["Cc1nc(C(=O)NC(C)c2ccc(C(C)C)cc2)cc(=O)[nH]1 (single isomer, unassigned)", 1.30]
]}

Q: Endpoint output: log10(Ki) of CC(C)(NC(=O)c1cc(=O)[nH]c(C2CC2)n1)c1ccc(C(F)(F)F)c(F)c1 . Value?
Result: 0.96

Q: Endpoint output: log10(Ki) of O=C(NC1(c2ccc(OC(F)(F)F)cc2)CC1)c1cc(=O)[nH]c(C2CC2)n1 . Value?
Result: 0.96

Q: Endpoint output: log10(Ki) of CC(NC(=O)c1cc(=O)[nH]c(C2CC2)n1)c1ccc(C(F)(F)F)cc1Cl (stereo not shown) . Value?
Result: 1.89

Q: Endpoint output: log10(Ki) of Cc1nc(C(=O)NC(C(=O)O)c2ccc(C(F)(F)F)cc2)cc(=O)[nH]1 (single isomer, unassigned) [Example 327] . Value?
Result: 3.91

Q: Endpoint output: log10(Ki) of O=C(N[C@@H](c1ccc(OC(F)(F)F)cc1)C1CC1)c1cc(=O)[nH]c(-c2ccccc2)n1 . Value?
Result: 0.59

Q: Endpoint output: log10(Ki) of O=C(NC(CO)c1ccc(C(F)(F)F)cc1)c1cc(=O)[nH]c(-c2ccccc2)n1 (stereo not shown) . Value?
Result: 0.99

Q: Endpoint output: log10(Ki) of CC(C)[C@@H](NC(=O)c1cc(=O)[nH]c(-c2ccccc2)n1)c1ccc(OC(F)(F)F)c(F)c1 . Value?
Result: 0.34

Q: Endpoint output: log10(Ki) of C[C@@H](NC(=O)c1cc(=O)[nH]c(-c2ccccc2)n1)c1ccc(-c2ccccc2)cc1 . Value?
Result: 1.20
